testedOn: P2RY14 (Homo sapiens, UniProt Q15391)
Sequence (Q15391 whole entry, one chain of several): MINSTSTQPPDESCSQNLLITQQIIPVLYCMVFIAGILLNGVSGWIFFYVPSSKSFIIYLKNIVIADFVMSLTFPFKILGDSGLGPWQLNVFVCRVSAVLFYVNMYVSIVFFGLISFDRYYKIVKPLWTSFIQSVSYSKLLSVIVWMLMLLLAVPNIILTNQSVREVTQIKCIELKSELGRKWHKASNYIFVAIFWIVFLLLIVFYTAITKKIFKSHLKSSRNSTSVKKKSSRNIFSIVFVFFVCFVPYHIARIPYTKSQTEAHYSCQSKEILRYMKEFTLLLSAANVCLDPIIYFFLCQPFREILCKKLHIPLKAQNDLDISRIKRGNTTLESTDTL
measurementDescription: CellKey System live cell functional assay, human P2RY14
Type: cell-based
Design: expressed in transfected cells
details: HEK cells expressing human P2RY14 and Gqi5

{"compound": "O=C(O)[C@H]1O[C@H](OP(=O)(O)OP(=O)(O)OC[C@H]2O[C@@H](n3ccc(=O)[nH]c3=O)[C@H](O)[C@@H]2O)[C@H](O)[C@@H](O)[C@@H]1O [UDP-glucuronic acid]", "testedOn": "P2RY14 (Homo sapiens, UniProt Q15391)", "P2RY14 signaling (impedance, CellKey)": "mediated signaling"}
{"compound": "CC(=O)N[C@H]1[C@@H](OP(=O)(O)OP(=O)(O)OC[C@H]2O[C@@H](n3ccc(=O)[nH]c3=O)[C@H](O)[C@@H]2O)O[C@H](CO)[C@@H](O)[C@@H]1O [UDP-N-acetylglucosamine]", "testedOn": "P2RY14 (Homo sapiens, UniProt Q15391)", "P2RY14 signaling (impedance, CellKey)": "mediated signaling"}
{"compound": "O=c1ccn([C@@H]2O[C@H](COP(=O)(O)OP(=O)(O)OP(=O)(O)O)[C@@H](O)[C@H]2O)c(=O)[nH]1 [UTP, Uridine 5′-triphosphate]", "testedOn": "P2RY14 (Homo sapiens, UniProt Q15391)", "P2RY14 signaling (impedance, CellKey)": "mediated signaling"}
{"compound": "O=c1ccn([C@@H]2O[C@H](COP(=O)(O)O)[C@@H](O)[C@H]2O)c(=O)[nH]1 [UMP]", "testedOn": "P2RY14 (Homo sapiens, UniProt Q15391)", "P2RY14 signaling (impedance, CellKey)": "mediated signaling"}
